Recorded kon, one value per entry.
Target: Recombinant human his-tagged IGF 1R extracellular domain protein (human) (UniProt P08069)
Assay: SPR, captured IgG, IGF-1R ECD-his analyte, dissociation pH 6
Numbers only; they are read as M⁻¹ s⁻¹.

Q: Sample VRDN-02568 (antibody, V domains shown) VH: EVQLVQSGGGLVKPGGSLRLSCAASGFTFSSFHMHWVRQAPGKGLEWISVIHTRGATYYADSVKGRFTISRDNAKNSLYLQMNSLRAEDTAVYYCARLGNFYYGHDVWGQGTTVTVSS VL: EIVLTQSPGTLSVSPGERATLSCRASQSIGSSLHWYQQKPGQAPRLLIKYASQSLSGIPDRFSGSGSGTDFTLTISRLEPEDFAVYYCHQSSRLPHTFGQGTKVEIK — what was its kon?
A: 4320

# credit: patent US20240343814A1
